Just for reference, patent US6620828B2 is where these values come from.

Could you please report measured Ki for the items listed next?
- measurement-target: phosphorylated VEGF-R2Δ50 (Homo sapiens, UniProt P35968, DEL940-989/E990V)
- Construct: VEGF-R2Δ50 contains residues 806-939 and 990-1171; made in house; host or cells: baculovirus/insect cells
- Sequence (P35968 with tags, fused parts or gaps DEL940-989/E990V limits assumed): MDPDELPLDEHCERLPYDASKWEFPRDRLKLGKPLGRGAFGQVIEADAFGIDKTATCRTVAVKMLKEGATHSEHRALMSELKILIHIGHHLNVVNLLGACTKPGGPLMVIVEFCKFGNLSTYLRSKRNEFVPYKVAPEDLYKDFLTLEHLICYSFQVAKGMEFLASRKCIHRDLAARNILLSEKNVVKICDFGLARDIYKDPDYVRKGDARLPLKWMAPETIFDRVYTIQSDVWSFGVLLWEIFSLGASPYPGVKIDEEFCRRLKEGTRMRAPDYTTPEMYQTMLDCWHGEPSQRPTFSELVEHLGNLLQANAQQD
- experiment-summary: VEGF-R2 ELISA assay
- Format: biochemical
- condition-description: Table 2; * determined with ELISA assay; read-out: FLVK-P Ki
Answers are plain numbers, in µM.

| given-smiles | measurement-target | unit-name | numeric-value |
| --- | --- | --- | --- |
| COc1ccccc1-c1csc(-c2sc(Nc3ccc(S(N)(=O)=O)cc3)nc2N)n1 | phosphorylated VEGF-R2Δ50 (Homo sapiens, UniProt P35968, DEL940-989/E990V) | µM | 64 |
| COc1cc(Nc2nc(N)c(-c3nc(-c4cc(O)ccc4O)cs3)s2)cc(OC)c1OC | phosphorylated VEGF-R2Δ50 (Homo sapiens, UniProt P35968, DEL940-989/E990V) | µM | 0.1 |
| COc1cc(Nc2nc(N)c(-c3noc(-c4ccsc4)n3)s2)cc(OC)c1OC | phosphorylated VEGF-R2Δ50 (Homo sapiens, UniProt P35968, DEL940-989/E990V) | µM | 1.6 |
| COc1cc(Nc2nc(N)c(-c3nc(-c4ccc(F)cc4F)cs3)s2)cc(OC)c1OC | phosphorylated VEGF-R2Δ50 (Homo sapiens, UniProt P35968, DEL940-989/E990V) | µM | 1.9 |
| Nc1nc(Nc2ccc(S(N)(=O)=O)cc2)sc1-c1nc(-c2ccccc2)cs1 | phosphorylated VEGF-R2Δ50 (Homo sapiens, UniProt P35968, DEL940-989/E990V) | µM | 1.4 |

Now consider a different molecule.
Tell me its Ki given `Nc1nc(Nc2ccc(S(N)(=O)=O)cc2)sc1-c1nc(-c2ccc(O)cc2)cs1` as the entry.
0.058

----------
- System: human umbilical vein endothelial cells (HUVEC)
- experiment-summary: HUVEC proliferation assay
- Assay type: cell-based
- condition-description: Homo sapiens, HUVEC, Table II screening results; 10 nM; crude combinatorial amide library; read-out: % inhibition @ 10 nM
Could you please report measured inhibition at 0.01 µM for the items listed next?
# output: number + unit

Worked examples follow.
| given-smiles | result |
| --- | --- |
| CNC(=O)Nc1nc(N)c(-c2nc(-c3cccc(NC(=O)c4ccc(=O)oc4)c3)cs2)s1 | 30% |
| CNC(=O)Nc1nc(N)c(-c2nc(-c3cccc(NC(=O)Cc4cn(C)cn4)c3)cs2)s1 | 42% |
| CNC(=O)Nc1nc(N)c(-c2nc(-c3cccc(NC(=O)[C@@]45C[C@@H]6C[C@@H]4CC6(C)C5)c3)cs2)s1 | 2% |

Tell me its inhibition at 0.01 µM given `CNC(=O)Nc1nc(N)c(-c2nc(-c3cccc(NC(=O)c4cc(=O)[nH]c(=O)[nH]4)c3)cs2)s1` as the entry.
-14%

----------
Could you please report measured inhibition at 0.05 µM for the items listed next?
- System: human umbilical vein endothelial cells (HUVEC)
- experiment-summary: HUVEC proliferation assay
- Format: cell-based
- condition-description: Homo sapiens, HUVEC, 50 nM; crude combinatorial urea library; read-out: Inhibition of HUVEC Proliferation % inhibition @ 50 nM

Worked examples follow.
| molecule | inhibition at 0.05 µM |
| --- | --- |
| COc1cccc(C(=O)Nc2cccc(-c3csc(-c4sc(NC(=O)NCCNc5ccccc5)nc4N)n3)c2)c1 | 62% |
| COc1cccc(C(=O)Nc2cccc(-c3csc(-c4sc(NC(=O)NCCCCN(C)C)nc4N)n3)c2)c1 | 71% |
| COc1cccc(C(=O)Nc2cccc(-c3csc(-c4sc(NC(=O)NCc5ccc(N)cc5)nc4N)n3)c2)c1 | 35% |

Now consider a different molecule.
Fill: inhibition at 0.05 µM (human umbilical vein endothelial cells (HUVEC)) for this molecule COc1cccc(C(=O)Nc2cccc(-c3csc(-c4sc(NC(=O)NC5CCS(=O)(=O)C5)nc4N)n3)c2)c1 (stereo not shown)
86%
